# Tested on: colon cancer cells (HCT116)
# protocol-description: Cancer cell line growth inhibition, Sulforhodamine B assay, HCT116
# Type: cell-based
# stated-conditions: Homo sapiens, HCT-116, HCT116 colon cancer cell line; read-out: Cancer Cell Line GI50 Range HCT116
observed-property: GI50

Measured GI50 of Cc1cc(-c2cnn3c(NCC4CCOCC4)cc(N[C@H]4CCCC[C@H]4O)nc23)ccc1C(=O)NC1CC1 [Example C39] : ≤ 100 nM

Please fill in: GI50 reported for Cc1cc(-c2cnn3c(NCC4(F)CCN(C)CC4)cc(Oc4cccc(F)c4)nc23)ccc1C(=O)NC1CC1 [Example C28] = ≤ 100 nM

// sample Cc1cc(-c2cnn3c(NCC4CCOCC4)cc(N[C@H]4CCC[C@@H]4O)nc23)ccc1C(=O)NC1CC1 [Example C123] , its GI50 was ≤ 100 nM

GI50 recorded for this compound, Cc1cc(-c2cnn3c(NCCN4CCCCC4)cc(Oc4cccc(F)c4)nc23)ccc1C(=O)NC1CC1 [Example C180] , is ≤ 100 nM

# GI50 (compound: O=C(NC1CC1)c1ccc(-c2cnn3c(NCCN4CCOCC4)cc(Oc4ccccc4)nc23)cc1Cl [Example C105] ) is ≤ 100 nM

Briefly, GI50 measured for Cc1cc(-c2cnn3c(NCC4CCOCC4)nc(NC4CCCCC4)nc23)ccc1C(=O)NC1CC1 [Example C22] : 100 to 500 nM

// GI50 value for Cc1cc(-c2cnn3c(NCC4COC4)cc(Oc4cccnc4)nc23)ccc1C(=O)NC1CC1 [Example C100] : 100 to 500 nM

Taken from patent US9573954B2.
